target: androgen receptor (Homo sapiens); assay: AR Antagonist Cell Assay (MMTV-luciferase reporter, DHT-stimulated); settings: MDA-MB453-MMTV clone 54-19 cells; antagonism of 100 pM DHT, 17 hr, luciferase readout
Sequence (P10275 whole entry Q868H, form open): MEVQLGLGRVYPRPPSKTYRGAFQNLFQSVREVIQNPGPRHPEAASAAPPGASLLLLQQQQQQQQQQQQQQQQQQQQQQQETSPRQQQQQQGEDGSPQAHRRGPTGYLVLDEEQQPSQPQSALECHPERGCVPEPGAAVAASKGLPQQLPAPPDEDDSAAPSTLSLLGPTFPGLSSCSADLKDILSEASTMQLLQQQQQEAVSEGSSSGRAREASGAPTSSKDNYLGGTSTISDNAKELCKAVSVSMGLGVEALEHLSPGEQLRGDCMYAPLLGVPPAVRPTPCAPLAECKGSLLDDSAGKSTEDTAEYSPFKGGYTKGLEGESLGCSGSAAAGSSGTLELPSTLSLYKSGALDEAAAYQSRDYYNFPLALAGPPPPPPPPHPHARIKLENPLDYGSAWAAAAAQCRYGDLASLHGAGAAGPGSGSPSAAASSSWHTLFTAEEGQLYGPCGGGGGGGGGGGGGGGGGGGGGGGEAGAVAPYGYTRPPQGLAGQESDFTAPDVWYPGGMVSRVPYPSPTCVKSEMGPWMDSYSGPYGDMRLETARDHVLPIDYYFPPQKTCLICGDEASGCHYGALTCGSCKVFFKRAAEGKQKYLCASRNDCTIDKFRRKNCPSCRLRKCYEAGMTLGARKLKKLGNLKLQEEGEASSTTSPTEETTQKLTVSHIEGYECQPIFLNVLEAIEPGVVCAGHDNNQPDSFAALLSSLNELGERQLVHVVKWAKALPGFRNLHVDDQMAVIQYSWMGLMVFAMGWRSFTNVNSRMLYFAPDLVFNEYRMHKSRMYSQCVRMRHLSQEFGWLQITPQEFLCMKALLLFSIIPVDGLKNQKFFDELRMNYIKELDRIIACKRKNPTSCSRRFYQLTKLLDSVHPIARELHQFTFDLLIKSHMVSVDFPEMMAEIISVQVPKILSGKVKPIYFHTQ
Recorded endpoint: IC50 (µM)

Compound: CCCCN(C)S(=O)(=O)c1ccc(Cc2ccc3oc(=O)cc(C(F)(F)F)c3c2)cc1
System: androgen receptor (Homo sapiens)
Recorded endpoint: IC50
Measure unit: µM
Measured result: 3.45
--
Compound: CCCCCN(CCO)S(=O)(=O)c1ccc(Cc2ccc3oc(=O)cc(C(F)(F)F)c3c2)cc1
System: androgen receptor (Homo sapiens)
Recorded endpoint: IC50
Measure unit: µM
Measured result: 3.52
--
Compound: O=c1cc(C(F)(F)F)c2cc(Cc3ccc(S(=O)(=O)Nc4ccc(F)cc4)cc3)ccc2o1
System: androgen receptor (Homo sapiens)
Recorded endpoint: IC50
Measure unit: µM
Measured result: 3.46
--
Compound: O=c1cc(C(F)(F)F)c2cc(Cc3ccc(S(=O)(=O)NCC(c4ccccc4)c4ccccc4)cc3)ccc2o1
System: androgen receptor (Homo sapiens)
Recorded endpoint: IC50
Measure unit: µM
Measured result: 5.74
--
Compound: CCOC(=O)CC(NS(=O)(=O)c1ccc(Cc2ccc3oc(=O)cc(C(F)(F)F)c3c2)cc1)c1ccccc1 (stereo not drawn)
System: androgen receptor (Homo sapiens)
Recorded endpoint: IC50
Measure unit: µM
Measured result: 3.43

[1] Cc1ccc(NS(=O)(=O)c2ccc(Cc3ccc4oc(=O)cc(C(F)(F)F)c4c3)cc2)cc1
[2] O=c1cc(C(F)(F)F)c2cc(Cc3ccc(S(=O)(=O)NCC4CCCC[C@H]4O)cc3)ccc2o1 (stereo in doubt)
[3] CCc1cccc(NS(=O)(=O)c2ccc(Cc3ccc4oc(=O)cc(C(F)(F)F)c4c3)cc2)c1
[4] O=c1cc(C(F)(F)F)c2cc(Cc3ccc(S(=O)(=O)NCCCn4ccnc4)cc3)ccc2[nH]1
Input: Task for the reader: rank each entry by its IC50, from the minimum upward. // ordering of labels required in reply
Output: 1, 3, 2, 4
(1: 1.21 µM, 3: 3.42 µM, 2: 5.77 µM, 4: 9.16 µM)
